Tested on: OVCAR-3 ovarian
Assay: NCI-60 one-dose screen, 48 h (100 = growth as untreated, 0 = no growth, -100 = all killed)
Settings: 10 µM unless noted
The panel holds about 83,000 compounds, 20% with a hit somewhere; the sample as a whole holds those more often.
Labelling: growth reported below 20% becomes TRUE; at or above becomes FALSE.

Examples from the recorded data:
[[record]]
molecule = "O=C(Nc1nc(-c2ccccc2)cs1)c1cc(O)c(O)c(O)c1"
classlabel = "FALSE"

[[record]]
molecule = "CC/C(=C\\c1ccc(N(C)C)cc1)c1nc2ccccc2c(=O)[nH]1"
classlabel = "FALSE"

[[record]]
molecule = "C=C1CC[C@@H]2[C@](C)(COC(C)=O)[C@H](OC(C)=O)CC[C@@]2(C)[C@@H]1CC(Nc1ccc(S(=O)(=O)Nc2cc(C)on2)cc1)C1=CCOC1=O (stereo not given in full)"
classlabel = "TRUE"


(Q) Report whether reported growth is lower than 20% (strictly) for `Nc1ccc(S(=O)(=O)Nc2ncccn2)cc1`
(A) FALSE

---

System: UO-31 renal
Assay: NCI-60 one-dose screen, 48 h
Details: 10 µM unless noted
This is part of a sample that, as a whole, favours compounds with a hit. Of some 83,000 tested, about 20% had one in any assay. Activity calls are given as the source filed them. Rule for the calls: active = growth percent below 10; inactive = the rest.
Outcomes you can answer with include only these: class 1 = active, class 0 = inactive

(Q) Hi, do you know how `COc1cccc(/C=C2\COc3ccc(O)c(O)c3C2=O)c1OC` came out in this test?
(A) class 1

---

System: HS 578T breast
Test: NCI-60 one-dose screen, 48 h (100 = growth as untreated, 0 = no growth, -100 = all killed)
Details: 10 µM unless noted
The panel holds about 83,000 compounds, 20% with a hit somewhere; the sample as a whole holds those more often.
measurementName: growth (%)
Write the number in % without appending the unit.

# annotated cases, reported growth shown
[[record]]
smilesentry = "Cc1scc2c1N(C(=O)CN1CCN(C)CC1)c1ccccc1NC2=O"
readoutvalue = 112

[[record]]
smilesentry = "CCCn1cnc2c1c(=O)n(CCCCC(C)=O)c(=O)n2C"
readoutvalue = 104

[[record]]
smilesentry = "c1cnc2ccc3ncccc3c2c1"
readoutvalue = 109

[[record]]
smilesentry = "S=C(Nc1ccc(C2=NCCN2)cc1)Nc1ccc(C2=NCCN2)cc1"
readoutvalue = 110

[[record]]
smilesentry = "c1ccc(Nc2nnc(-c3cc(-c4cccnc4)n(-c4ccccc4)n3)s2)cc1"
readoutvalue = 119


(Q) Under HS 578T breast, report growth for `O=C(Nc1ccc(OCc2nnc(-c3ccccc3)o2)c(F)c1)Nc1ccc(Cl)c(C(F)(F)F)c1`
(A) 35.6

(Q) Output reported growth of the compound `C[C@]12CC[C@@H]3c4ccc(O)c([N+](=O)[O-])c4CC[C@H]3[C@@H]1CC[C@@H]2NS(=O)(=O)c1cccc(Br)c1` on HS 578T breast.
(A) 62.5

(Q) Provide growth, system HS 578T breast, entry `Cc1ccccc1-c1cc(Cc2ccccc2O)c(=O)[nH]n1`
(A) 104

---

Test system: UO-31 renal
Experiment: NCI-60 one-dose screen, 48 h
Conditions: 10 µM unless noted
The panel holds about 83,000 compounds, 20% with a hit somewhere; the sample as a whole holds those more often. Calls of active or inactive are those of the source. Rule for the calls: active = growth percent below 10; inactive = the rest.
Reply using exactly one outcome from active, inactive

Look over these answered cases.
[[record]]
compound = "O=[N+]([O-])c1cnc(Sc2ccncn2)c([N+](=O)[O-])c1"
classlabel = "inactive"

[[record]]
compound = "COc1cc(/C=C/C(=O)N2CCN(C(=O)/C=C/c3ccccc3)CC2)cc(OC)c1OC"
classlabel = "inactive"

[[record]]
compound = "Nc1ccc2c3c(cccc13)-c1ccccc1-2"
classlabel = "inactive"


(Q) For `OC(CCC(O)(c1ccccc1)c1ccccc1)(c1ccccc1)c1ccccc1` , what call appears in the results of this test?
(A) inactive

(Q) What is the recorded call for this compound in the test? `CCCCCCCC/C=C\CCCCCCCCOc1ccccc1CC(=O)NCC[N+]1(C)CCCC1`
(A) inactive

---

Test system: RPMI-8226 leukemia
Experiment: NCI-60 one-dose screen, 48 h (100 = growth as untreated, 0 = no growth, -100 = all killed)
Conditions: 10 µM unless noted
About 83,000 compounds went through this panel and 20% of them were active in at least one assay; those are over-represented in the sample as a whole.
measurementName: growth (%)
Hi! Could you send only the number? It should be in %, unit omitted.

Answered cases to consult:
[[record]]
smilesentry = "CN=C(NC)N/N=C(C)\\C=N\\NC(=NC)NC"
readoutvalue = 127

[[record]]
smilesentry = "CSc1nnc(C2=CC(=O)c3ccccc3C2=O)n1-c1ccccc1"
readoutvalue = 72.2


(Q) Quote growth reported for `CN(CC(=O)Nc1nc2ccccc2[nH]1)S(=O)(=O)c1ccc(Cl)cc1` please.
(A) 57.5

(Q) Identify the reported growth for the following entry. `CCN(CC)c1ccc(CN(CC(=O)c2ccc(Cl)c(Cl)c2)Cc2ccccc2)cc1`
(A) 101

(Q) Give a short answer stating reported growth for `Cc1cc(N2CCOCC2)nc(N2CCOCC2)n1` .
(A) 99.2

(Q) Answer with reported growth of `COc1ccc(-c2noc(N)c2-c2cc(OC)c3c(c2)OCO3)cc1`
(A) 7.65

---

Tested on: SN12C renal
Experiment: NCI-60 one-dose screen, 48 h
Conditions: 10 µM unless noted
The panel holds about 83,000 compounds, 20% with a hit somewhere; the sample as a whole holds those more often. The source made the active and inactive calls. The calls were made as follows: active = growth percent below 10; inactive = the rest.
Can you answer with just one of these options? true for active, false for inactive

Would you please look over these solved cases?
[[record]]
compound = "COc1ccc2c(c1)nc(N)c1c3cc(C)c(C)cc3cn21"
experimentaltarget = "SN12C renal"
classlabel = "false"

[[record]]
compound = "O=C1NCC(Nc2ccc(Br)cc2Cl)C(=O)N1 (stereo unspecified)"
experimentaltarget = "SN12C renal"
classlabel = "false"

[[record]]
compound = "CCC1(c2ccccc2)Oc2ccccc2-n2c(C#N)c3ccccc3c2C1=O (stereo unspecified)"
experimentaltarget = "SN12C renal"
classlabel = "false"

[[record]]
compound = "COc1ccc(C2=NN(C(=O)c3cc(OC)c(OC)c(OC)c3)C(c3ccc(C#N)cc3)C2)cc1OC (stereo unspecified)"
experimentaltarget = "SN12C renal"
classlabel = "false"

[[record]]
compound = "O=C1OCC/C1=C\\OCCCO/C=C1\\CCOC1=O"
experimentaltarget = "SN12C renal"
classlabel = "false"


(Q) State the result this test recorded for `COc1c(O)cc2oc3cc(O)c(CC=C(C)C)c(O)c3c(=O)c2c1C/C=C(\C)CCC=C(C)C` .
(A) true

---

Test system: UO-31 renal
Test: NCI-60 one-dose screen, 48 h (100 = growth as untreated, 0 = no growth, -100 = all killed)
Conditions: 10 µM unless noted
Compounds without any hit were thinned out: in the full panel of roughly 83,000, 20% have a hit.
Measured growth of individual entries
Enter your answer as a number in %; do not include the unit.

[[record]]
compound = "CC(=O)Oc1ccc(C23c4ccccc4C2(OC(C)=O)c2cc(OC(C)=O)ccc23)cc1 (centres undefined)"
unitabbrev = "%"
readoutvalue = 11

[[record]]
compound = "COc1cc(C2C=C(c3ccc(C)cc3)Nc3nc(SC)[nH]c(=O)c32)ccc1Oc1ccnc2cc(Cl)ccc12 (centres undefined)"
unitabbrev = "%"
readoutvalue = 57.8

[[record]]
compound = "Nc1ccc(S(=O)(=O)Nc2ncccn2)cc1"
unitabbrev = "%"
readoutvalue = 94.5


Field: next compound
(Q) Look up and report measured growth (UO-31 renal) for the following compound: COc1ccc(-c2nn(-c3cccc(Cl)c3)cc2C2CC(c3ccccc3)=NN2C(C)=O)cc1 (centres undefined)
(A) 58.9

---

The entries below come with measured growth values attached.
System: HS 578T breast
Assay: NCI-60 one-dose screen, 48 h (100 = growth as untreated, 0 = no growth, -100 = all killed)
Conditions: 10 µM unless noted
This is part of a sample that, as a whole, favours compounds with a hit. Of some 83,000 tested, about 20% had one in any assay. The source made the active and inactive calls. Rule for the calls: active = growth percent below 10; inactive = the rest.

[[record]]
smilesentry = "N=c1ccn2c(n1)O[C@@H]1[C@@H](O)[C@H](CO)O[C@@H]12"
experimentaltarget = "HS 578T breast"
measurementname = "growth"
readoutvalue = "99% (inactive)"

[[record]]
smilesentry = "C=C(C)[C@@H]1C/C=C(/C=O)CC[C@@H]2O[C@@]2(C)CC/C=C(\\C)CC1"
experimentaltarget = "HS 578T breast"
measurementname = "growth"
readoutvalue = "126% (inactive)"

[[record]]
smilesentry = "O=C1Nc2ccc(F)cc2/C1=C/c1nc(-c2ccc(F)cc2)n2ccccc12"
experimentaltarget = "HS 578T breast"
measurementname = "growth"
readoutvalue = "100% (inactive)"


Here is the next item to consider.
(Q) Tell us which growth value is on record for `CCN(CC)c1ccc(N=Nc2cc(Cl)ccc2Cl)c(NC(=O)CCC(=O)O)c1`
(A) 95.1% (inactive)
